# Tested on: RXF 393 renal
# assay procedure: NCI tumour cell line growth inhibition, 48 h
Peptide text beside a SMILES is read from it. * marks the point of attachment. OSu = O=C1CCC(=O)N1O*; OBn = c1ccc(CO*)cc1; Bn = c1ccc(C*)cc1
Give measured TGI for each item. Keep answers brief.

Query (molecule): CCOC(=O)C1=CN(C(=O)c2ccccc2)CCC1Cc1ccccc1 (stereo not drawn) ; field requested: TGI
61.8 µM

Would you kindly repeat that for CC(C)CC(NC(=O)C(N)CCC(=O)OCc1ccccc1)C(=O)NC(COCc1ccccc1)C(=O)NC(Cc1ccccc1)C(=O)ON1C(=O)CCC1=O (stereo not drawn) (H-E(OBn)LS(Bn)F-OSu; configuration not given here) ?
78.2 µM

Field entry: `Cc1[nH]c(=O)[nH]c(=O)c1C(=O)N(CCO)Cc1ccccc1`
83.6 µM

Also COc1cccc2c1C(=O)c1c(O)c3c(c(O)c1C2=O)C[C@@](O)(/C(C)=N\O)C[C@@H]3OC1CC(N)C(O)C(C)O1 (stereo partly drawn) ?
4.76 µM

Next molecule up: `N#Cc1ccc2oc3ccc(C#N)cc3c(=O)c2c1`
42.8 µM

And for `C=CCc1cccc2cc(C(=O)Nc3nc(C45CC6CC(CC(C6)C4)C5)cs3)c(=O)oc12` ?
22.5 µM

Now this one: Cc1ccc(N(C(=O)CC(=O)N2N=C(c3ccccc3)C(N=Nc3ccc([N+](=O)[O-])cc3)C2=O)C(=O)c2ccc(Cl)cc2)cc1 (stereo not drawn)
10.9 µM

And what about the molecule COc1ccc(N2C(=O)C3c4[nH]c5ccccc5c4C4CCC(C(C)(C)C)CC4C3C2=O)cc1OC (stereo not drawn) ?
29.7 µM
